molecular target: T1, C3d (UniProt P01024 1002-1303, limits assumed); experiment: binding screen of Example 5; method and unit not stated
T1 construct: domain: C3d
T1 sequence (P01024 1002-1303 limits assumed): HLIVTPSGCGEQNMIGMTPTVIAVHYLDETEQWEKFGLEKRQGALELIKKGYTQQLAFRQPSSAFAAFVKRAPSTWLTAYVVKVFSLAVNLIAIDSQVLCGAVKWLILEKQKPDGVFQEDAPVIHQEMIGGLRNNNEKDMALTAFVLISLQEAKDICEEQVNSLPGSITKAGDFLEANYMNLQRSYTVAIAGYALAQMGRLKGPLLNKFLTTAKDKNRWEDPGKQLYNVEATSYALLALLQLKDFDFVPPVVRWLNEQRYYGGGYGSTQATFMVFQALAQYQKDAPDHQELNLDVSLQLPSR
metric: binding relative to negative control mIgG2
Please give the numeric answer without any surrounding text.

Prompt: Item antibody 3G8 (antibody, V domains shown, Mouse hybridoma antibody) VH: EIQLQQSGAELVKPGASVKISCMASGYSFTGYNMNWVKQSHGKGLEWIGNINPYYDSTSYNQKFKGKATLTVDKSSSTAYMQLNSLTSEDSAVYYCARENYDFVGFAYWGQGTLVTVSA VL: QIVLSQSPAILSASPGEKVTMTCRASSSVSYMHWFQQKPGSSPKPWIYVTSNLASGVPPRFSGSGSGTSYSLTISRVEAEDAATYYCQQWSTNPLTFGAGTKLELK has what recorded binding relative to negative control mIgG2?
Response: 0

From: patent US20190322730A1
